# System: Phospho-PRAS40(T246)
# method_notes: Luminex multiplex assay, Phospho-PRAS40(T246)
# Type: cell-based
# test_parameters: PC3 cell line; read-out: Luminex PRAS40
readout_kind: IC50 (nM)

Past entries and their recorded results:
| compound | target_entity | IC50 [nM] |
| --- | --- | --- |
| COC1CCC(CN2CC(=O)Nc3ncc(-c4ccc(C(C)(C)O)nc4)nc32)C1 (stereo not drawn) [C-21] | Phospho-PRAS40(T246) | 795 |
| COC1CCC(N2CC(=O)Nc3ncc(-c4ccc(-c5nnc[nH]5)nc4C)nc32)C1 (stereo not drawn) [C-51] | Phospho-PRAS40(T246) | 816 |
| CC(C)(O)c1ccc(-c2cnc3[nH]c(=O)n(CCC4CCOCC4)c3n2)cn1 | Phospho-PRAS40(T246) | 1300 |

1: CNc1nc2c(C)cc(-c3cnc4c(n3)N(CCOC)C(=O)CN4)cc2[nH]1
2: CC(C)(O)c1ccc(-c2cnc3c(n2)N(Cc2cccc(C#N)c2)C(=O)CN3)cn1
3: COCCN1CC(=O)Nc2ncc(-c3cnc(-c4ncn[nH]4)cc3C)nc21
Rank ascending by IC50. Put the labels in the requested order and write them down.
3, 2, 1

====

# System: GSK-3β
# method_notes: MSD assay, GSK-3β phosphorylation in cell lysates
# Format: cell-based
# test_parameters: PC3 cell line; read-out: MSD GSK-3β
pIC50: −log10 of the molar value.
readout_kind: pIC50

| molecule | target_entity | pIC50 |
| --- | --- | --- |
| O=C1CNc2ncc(-c3cccc4[nH]ccc34)nc2N1CCC1CCOCC1 [C-145] | GSK-3β | < 6.30 |

// recorded pIC50 for CCN1C(=O)CNc2ncc(-c3ccc(-c4ncn[nH]4)nc3)nc21 [C-150] : < 6.30

// recorded pIC50 for CC(C)N1CC(=O)Nc2ncc(-c3ccc(-c4nc[nH]n4)nc3)nc21 [C-134] : < 6.30

// recorded pIC50 for O=C1CNc2ncc(-c3cccc4[nH]ncc34)nc2N1CCC1CCOCC1 [C-117] : < 5.30

// recorded pIC50 for COC1CCC(CN2C(=O)CNc3ncc(-c4cc(F)c(-c5nc[nH]n5)cc4C)nc32)CC1 (centres unmarked) [C-167] : > 8.82

// recorded pIC50 for CO[C@H]1CC[C@@H](N2CC(=O)Nc3ncc(-c4ccc(-c5nc[nH]n5)c(F)c4C)nc32)CC1 [C-110] : < 6.82

// recorded pIC50 for O=C1CNc2ncc(-c3cccc4[nH]cnc34)nc2N1CCC1CCOCC1 [C-162] : < 5.30

// recorded pIC50 for COC1CCC(N2CC(=O)Nc3ncc(-c4ccc(-c5ncn[nH]5)nc4)nc32)CC1 (centres unmarked) [C-146] : < 6.30

// recorded pIC50 for Cc1cc(-c2nc[nH]n2)c(F)cc1-c1cnc2c(n1)N(C1CCC(O)CC1)CC(=O)N2 (centres unmarked) [C-133] : < 6.30

// recorded pIC50 for COCCN1C(=O)CNc2ncc(-c3cc(F)c(-c4nc[nH]n4)cc3C)nc21 [C-129] : < 6.30

// recorded pIC50 for COCCN1CC(=O)Nc2ncc(-c3cc(F)c(-c4nc[nH]n4)cc3C)nc21 [C-131] : < 6.30

// recorded pIC50 for COC1CCC(N2CC(=O)Nc3ncc(-c4ccc(-c5ncn[nH]5)nc4)nc32)CC1 (centres unmarked) [C-136] : < 6.30
